Data origin: the supplement of paper PMC10567573

B1: FBXO3 (parent)
chain: FIDTYSDVGRYIDHYAAIKKAWDD

variants of: B1; test: protein stability index of a GFP-peptide fusion (GPS, HEK-293T) (PSI 1-6); higher = more stable; details: c terminus: a fixed tail appended;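 also: lentivirally expressed fusions sorted by FACS into six bins by GFP to DsRed ratio, PSI derived from sequencing read proportions per bin multiplied by bin number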
Give protein stability index for every item shown.
One number for each entry.

Here are 4 variants together with their reported answers.
| constructSequence | protein stability index |
| --- | --- |
| WIDTYSDVGRYIDHYAAIKKAWDD | 2.58 |
| FIRTYSDVGRYIDHYAAIKKAWDD | 1.91 |
| QIDTYSDVGRYIDHYAAIKKAWDD | 3.41 |
| FIDTYSDVGRYIDHYAAIKPAWDD | 2.15 |

For every item below, please supply its protein stability index.
1. NIDTYSDVGRYIDHYAAIKKAWDD
2. FIDTYSDVKRYIDHYAAIKKAWDD
3. FIDTYSDVGRYDDHYAAIKKAWDD
4. FIDTYSDVGRYRDHYAAIKKAWDD
5. FIDTYSDVGRYIDHYAAIKKAWDK
6. FIDTYSDVGRYIDHYAAKKKAWDD
7. FIDTYSDDGRYIDHYAAIKKAWDD
8. FIDTYSDVGRYIDHYAVIKKAWDD

[3.57, 1.85, 1.82, 2.27, 1.58, 2.41, 3.07, 2.18]
